Assign Ki to each entry below.
# test-summary: Reversible competitive inhibition of Mycobacterium tuberculosis DHQ2 assessed as conversion of 3-dehydroquinic acid to 3-dehydroshikimic acid by Dixon plot analysis
Express your answer in µM, writing the number without its unit.

The reported value for O=C(O)[C@]1(O)C=C([C@H](O)Cc2ccccc2)[C@@H](O)[C@H](O)C1 in terms of Ki is 27

The reported value for O=C(O)[C@]1(O)C=C(CO)[C@@H](O)[C@H](O)C1 in terms of Ki is 11.2

The reported value for O=C(O)[C@]1(O)C=C([C@@H](Cl)Cc2ccccc2)[C@@H](O)[C@H](O)C1 in terms of Ki is 14.5

The reported value for O=C(O)[C@]1(O)C=C([C@@H](O)Cc2ccccc2)[C@@H](O)[C@H](O)C1 in terms of Ki is 34

The reported value for O=C(O)[C@]1(O)C=C([C@H](Cl)Cc2ccccc2)[C@@H](O)[C@H](O)C1 in terms of Ki is 0.48

The reported value for O=C(O)[C@]1(O)C=C(CCO)[C@@H](O)[C@H](O)C1 in terms of Ki is 15
